# ASSAY_EXPLANATION: The drug is tested on WLS-007 corresponding to human gut metagenome with ENA study accession number: PRJEB37062 and ENA sample accession number: ERS12561742 for biotransformation under anaerobic condition. The drug concentrations were measured over 9 timepoints collected between 0 and 24 hours of incubation by liquid-chromatography-coupled mass spectrometry (LC–MS); further: call rule not given here
# CONDITION_INFO: 2 µM
RECORDED_ENDPOINT: Bacterial Biotransformation

Recorded results for 5 compounds are shown here.
>>> reported_result("CC(CN1c2ccccc2Sc2ccccc21)N(C)C (configuration not stated)")
"Compound NOT metabolized"
>>> reported_result("CCCCC(=O)N(Cc1ccc(-c2ccccc2-c2nnn[nH]2)cc1)[C@H](C(=O)O)C(C)C")
"Compound metabolized"
>>> reported_result("C=CCc1ccccc1OCC(O)CNC(C)C (configuration not stated)")
"Compound NOT metabolized"
>>> reported_result("CCN(CC)CC#CCOC(=O)C(O)(c1ccccc1)C1CCCCC1.Cl (configuration not stated) [OXYBUTYNIN CHLORIDE]")
"Compound metabolized"
>>> reported_result("CC[C@@H](CO)NC(=O)[C@@H]1C=C2c3cccc4c3c(cn4C)C[C@H]2N(C)C1.O=C(O)/C=C\\C(=O)O [METHYSERGIDE MALEATE]")
"Compound NOT metabolized"

Q) Please report the measured Bacterial Biotransformation for CNS(=O)(=O)Cc1ccc2[nH]cc(CCN(C)C)c2c1.O=C(O)CCC(=O)O [SUMATRIPTAN SUCCINATE]
A) Compound NOT metabolized

Q) Please report the measured Bacterial Biotransformation for COc1ccccc1N1CCN(CC(O)COc2cccc3ccccc23)CC1 (configuration not stated)
A) Compound NOT metabolized

Q) Please report the measured Bacterial Biotransformation for C[C@@H](CO)NC(=O)[C@@H]1C=C2c3cccc4[nH]cc(c34)C[C@H]2N(C)C1.O=C(O)/C=C\C(=O)O [ERGONOVINE MALEATE]
A) Compound NOT metabolized
